Data origin, for the record: PubChem BioAssay AID1259343

# Method description: Mycobacterium tuberculosis growth inhibition, primary screen (AID 1259343)
# Test conditions: at 10 µM
The whole screen tested about 6,200 compounds, of which about 2,900 (47%) were called active. Cut-off read from the data, not from the text of the source: active = inhibition above about 50%; inactive = the rest. So high a share suggests a set chosen from earlier hits. The list shows a part of the results.
Form entry, call: pick from active, inactive

Molecule	Class assignment
Nc1c(C(=O)CCC(=O)O)oc2ccc(Br)cc12	active
COc1cccc(CC2(CO)CCCN(C(=O)CCCc3ccc(Cl)cc3)C2)c1 (stereo unspecified)	inactive
CC(C)(C)OC(=O)NCC1CCCCN1C(=O)c1cc(-c2ccccc2F)on1 (stereo unspecified)	inactive
Cc1ccn(CC(=O)N2CCC(C(=O)Nc3ccc(Oc4ccccc4F)cc3)CC2)n1	inactive
CCc1ccc(NC(=O)CSc2nc(=O)n3ccccc3n2)cc1	inactive
Cc1nc(-n2nc(-c3ccco3)cc2NC(=O)CC(C)C)[nH]c(=O)c1C	active
Cc1nc(-n2nc(-c3ccco3)cc2NC(=O)C2CC2)[nH]c(=O)c1C	active
Nc1c(C(=O)c2ccc(Br)s2)oc2ccccc12	inactive

In: Identify the outcome logged in this assay for the molecule shown: `CC(C)(C#N)C(=O)Nc1cc(-c2ccccc2F)no1`
Out: active

In: Identify the outcome logged in this assay for the molecule shown: `CCCCNC(=O)NCC12CC3CC(CC(C3)C1)C2`
Out: active

In: Identify the outcome logged in this assay for the molecule shown: `CCOC(=O)c1ccc(NC(=O)CSc2nc(=O)n3ccccc3n2)cc1`
Out: active

---

# Method description: Mycobacterium tuberculosis growth inhibition, primary screen (AID 1259343)
# Test conditions: at 10 µM, active compounds read high
The campaign covered roughly 6,200 compounds. About 2,900 (47%) were called active. The set was probably picked from earlier hits. Some of the results follow.
Returns true (1) if the recorded inhibition is greater than or equal to 40%, and false (0) otherwise.

Compound	Class assignment
CN1N=C(c2ccc(F)c(F)c2)CSC1=NCc1ccccc1	false (0)
CC(=O)Nc1ccc(Sc2nc(C)cc(C)c2C#N)cc1	false (0)
CCOC(=O)CC(=O)CSc1nc(-c2cccc(C)c2)ns1	true (1)
COc1ccc(C(N)c2csc(Nc3nncc4ccccc34)n2)cc1 (configuration not stated)	true (1)
CC(C)(C)CC(C)(C)c1ccc(O)c(Cc2ccc(Cl)cc2Cl)c1	true (1)
COc1cccc(OCCCCOc2ccc3ccccc3c2)c1	true (1)
Cc1ccc(CSc2nc(=O)n3ccc(C)cc3n2)cc1	false (0)
COc1ccccc1OCCCOc1ccccc1F	true (1)

Read the next record carefully.
In: Given `Cc1ccn2c(=O)nc(SCc3ccc(F)cc3)nc2c1` , state whether its inhibition is at least 40%.
Out: false (0)

---

inhibition listing for selected compounds.
# Method description: Mycobacterium tuberculosis growth inhibition, primary screen (AID 1259343)
# Test conditions: at 10 µM, active compounds read high
Hit rate of the full screen: of about 6,200 compounds, about 2,900 (47%) were called active. The set was probably picked from earlier hits. The list shows a part of the results.
Please respond with the number in % and leave the unit unwritten.

In: Quickly give me recorded inhibition for `COc1ccc(OC)c(Nc2nc(Cl)nc(Nc3cc(OC)ccc3OC)n2)c1`
Out: 1.76

In: Quickly give me recorded inhibition for `Cc1ccc(C)c(S(=O)(=O)Nc2ccc(Cl)cc2F)c1`
Out: 0.55

In: Quickly give me recorded inhibition for `CC(C)(Cc1ccc2ccccc2c1)NC[C@@H](O)COc1cccc(Cl)c1C#N`
Out: 87.4

In: Quickly give me recorded inhibition for `O=C(CCl)Nc1cc2c(cc1Br)OCCO2`
Out: 94.1

In: Quickly give me recorded inhibition for `Cc1cccc2cc(C(=O)N3C[C@H]4CC=CC[C@H]4C3)oc12`
Out: 72.4

In: Quickly give me recorded inhibition for `Cc1ccc(NS(=O)(=O)c2cccc(C(F)(F)F)c2)c([N+](=O)[O-])c1`
Out: 77.1

In: Quickly give me recorded inhibition for `O=C(CNc1ccc2c(c1)OC(F)(F)O2)N1CCc2sccc2C1`
Out: -40

In: Quickly give me recorded inhibition for `Cc1ccc(OCC(=O)Nc2cc(-c3ccco3)nn2-c2nc(C)c(C)c(=O)[nH]2)cc1`
Out: 101

In: Quickly give me recorded inhibition for `COc1cccc(F)c1OCc1nc(CC2CC2)no1`
Out: -44.2

In: Quickly give me recorded inhibition for `CC(C)c1nc2c(c(=O)c3ccccc3n2C)c(=O)n1Cc1ccccc1`
Out: -29.9

In: Quickly give me recorded inhibition for `COc1ccc(C)cc1NC(=O)N1CCN(CCCOC(c2ccc(Cl)cc2)c2ccc(Cl)cc2)CC1`
Out: -0.67

In: Quickly give me recorded inhibition for COC(=O)C(Nc1ccc(OC)cc1)(c1cc(OC)c(O)c(OC)c1)C(F)(F)F (stereo unspecified)
Out: 84

In: Quickly give me recorded inhibition for COc1ccc(N2C(=O)C3N=NN(Cc4ccccc4)C3C2=O)cc1Cl (stereo unspecified)
Out: 20.8

In: Quickly give me recorded inhibition for `O=[N+]([O-])c1ccc(Cl)c(S(=O)(=O)Nc2ccc(F)cc2Cl)c1`
Out: 78.2

In: Quickly give me recorded inhibition for `CCCCc1ccc(N=Cc2nc(/C=C/c3cccc([N+](=O)[O-])c3)oc2O)cc1`
Out: 84.9

In: Quickly give me recorded inhibition for `COc1cccc(C(=O)Nc2cc(-c3ccco3)nn2-c2nc(C)c(C)c(=O)[nH]2)c1OC`
Out: 98.4
